system: PBMC; test: Immunosuppressive activity in human PBMC assessed as inhibition of LPS-stimulated TNFalpha production at 10 ug/mL after 18 to 24 hrs by ELISA; format: functional
VALUE TYPE: inhibition at 10 µg/mL (%)
Provide only the numeric value, understood in %.

Challenge: GET /values?readout=inhibition at 10 µg/mL&item= CC(=O)OC[C@]12[C@H](OC(C)=O)[C@H](OC(C)=O)[C@@H]3[C@@H](OC(=O)c4ccccc4)[C@@]14O[C@@]3(C)COC(=O)c1cccnc1C(C)C(C)C(=O)O[C@@H]([C@H](OC(C)=O)[C@@H]2OC(=O)c1ccccc1)[C@]4(C)O (stereo partly drawn)
Response given: 76

Challenge: Please give the result for CC(=O)OC[C@]12[C@H](OC(C)=O)[C@H](OC(C)=O)[C@@H]3[C@@H](OC(=O)c4ccccc4)[C@@]14O[C@@]3(C)COC(=O)c1cccnc1C(C)C(C)C(=O)O[C@@H]([C@H](OC(=O)c1cccnc1)[C@@H]2OC(C)=O)[C@]4(C)O (stereo partly drawn) [HYPONINE D] too.
Response given: -9

Challenge: Please give the result for CC(=O)OC[C@]12[C@H](OC(C)=O)[C@H](OC(C)=O)[C@@H]3[C@@H](O)[C@@]14O[C@@]3(C)COC(=O)c1cccnc1CC[C@@](C)(OC(=O)c1ccccc1)C(=O)O[C@@H]([C@H](OC(C)=O)[C@@H]2OC(C)=O)[C@]4(C)O [WILFORNINE B] too.
Response given: -6

The measurements presented in this section are drawn from ChEMBL document CHEMBL1150831.
